This collection of values is drawn from PubChem BioAssay (NCI).

System: K-562 leukemia
ASSAY_TEXT: NCI-60 one-dose screen, 48 h (100 = growth as untreated, 0 = no growth, -100 = all killed)
EXPERIMENTAL_CONDITIONS: 10 µM unless noted
This is part of a sample that, as a whole, favours compounds with a hit. Of some 83,000 tested, about 20% had one in any assay.
Mark each entry Met if its growth sits below 40%, and Not met for all others.

[[record]]
smiles_data = "COc1ccc(/C=C(\\C(=O)NCc2cccnc2)S(=O)(=O)c2ccccc2)cc1OC"
category_label = "Met"

[[record]]
smiles_data = "COc1ccc2c(c1)CC[C@@H]1[C@@H]2CC[C@]2(C)c3c(cc(C#N)c4c3sc3ccccc34)C[C@@H]12"
category_label = "Not met"

[[record]]
smiles_data = "COc1ccc(Oc2ccc(/C=C/C(=O)c3cc4ccccc4oc3=O)cc2)cc1"
category_label = "Not met"

[[record]]
smiles_data = "CCN1CCN(CCNc2nccc(-c3c(-c4ccc(F)c(O)c4)nc4occn34)n2)S1(=O)=O"
category_label = "Met"

[[record]]
smiles_data = "CSc1nc2ccc(C)cc2cc1/C=C1/C=C(c2ccccc2)NC1=O"
category_label = "Not met"

[[record]]
smiles_data = "COc1cc(C=C2C(=O)NC(=S)NC2=O)cc(CN2CCCC2)c1O"
category_label = "Not met"

[[record]]
smiles_data = "O=C1/C(=C/c2cccc(Br)c2)COc2ccc(O)cc21"
category_label = "Met"

[[record]]
smiles_data = "CCOC(=O)c1[nH]cc2c1CCc1sc(Nc3ccccn3)nc1-2"
category_label = "Not met"

